Taken from patent US20230391772A1.

Molecular target: KRAS(G12C) (Homo sapiens, UniProt P01116, G12C)
Sequence (P01116 1-188 isoform P01116-2 G12C): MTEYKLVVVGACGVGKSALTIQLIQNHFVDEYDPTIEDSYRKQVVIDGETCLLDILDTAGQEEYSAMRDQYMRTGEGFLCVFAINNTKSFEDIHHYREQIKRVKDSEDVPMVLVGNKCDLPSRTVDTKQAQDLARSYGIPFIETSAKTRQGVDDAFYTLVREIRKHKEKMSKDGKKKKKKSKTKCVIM
Assay: KRAS(G12C) Western blot protein degradation assay in LU65A cells
Format: cell-based
Parameters: LU65A human lung cancer cell line, which expresses KRAS(G12C); host or cells: LU65A
Conditions: 6 hr
Assignment: determine reported DC50 for the given compounds.

Solved cases (3 shown):
C=CC(=O)N1CCN(c2nc(OC[C@@H]3CC[C@H](CN4CCN(Cc5ccc(-n6c(O)nnc6-c6cc(C)c(O)cc6O)cc5)CC4)N3C)nc3c2CCN(c2cccc4cccc(Cl)c24)C3)C[C@@H]1CC#N :: > 1000 nM
C=CC(=O)N1CCN(c2nc(OC[C@@H]3C[C@H](N4CCC(C(=O)N5CCN(Cc6ccc(-n7c(O)nnc7-c7cc(C)c(O)cc7O)cc6)CC5)CC4)CN3C)nc3c2CCN(c2cccc4ccccc24)C3)C[C@@H]1CC#N :: > 1000 nM
C=CC(=O)N1CCN(c2nc(OC[C@@H]3CC[C@H](CN4CCN(Cc5ccc(-n6c(C(=O)NCC)nnc6-c6cc(C(C)C)c(O)cc6O)cc5)CC4)N3C)nc3c2CCN(c2cccc(C)c2C)C3)C[C@@H]1CC#N :: 100 to 1000 nM

With those in mind, consider the next compound.
Provide one value: measured DC50 of C=CC(=O)N1CCN(c2nc(OCCN3CCC(C(=O)N4CCN(Cc5ccc(-n6c(C(=O)NCC(F)(F)F)nnc6-c6cc(C)c(O)cc6O)cc5)CC4)CC3)nc3c2CCN(c2cccc4cccc(Cl)c24)C3)C[C@@H]1CC#N [Compound 251] > 1000 nM

---

Target: HSP90a protein (Homo sapiens)
Construct: purchased BPS Bioscience 50298
Test: HSP90α-binding fluorescent polarization (FP) assay, BODIPY-labeled RNK04010 probe
Details: FP competition with RNK04010 (BODIPY-labeled), 5 nM, 300 min at 25° C.
pIC50: −log10 of the molar value.
Assignment: determine reported pIC50 for the given compounds.

C=CC(=O)N1CCN(c2nc(OC[C@H]3CCN(C(=O)C4CCN(Cc5ccc(-n6c(O)nnc6-c6cc(C(C)C)c(O)cc6O)cc5)CC4)C3)nc3c2CCN(c2cccc4cccc(Cl)c24)C3)C[C@@H]1CC#N [Compound 184] :: 6.00 to 7.00
C=CC(=O)N1CCN(c2nc(OC[C@@H]3CC[C@H](COC(=O)NCc4ccc(-n5c(O)nnc5-c5cc(CC)c(O)cc5O)cc4)N3C)nc3c2CCN(c2cccc4cccc(Cl)c24)C3)C[C@@H]1CC#N [Compound 296] :: > 7.00
C=CC(=O)N1CCN(c2nc(NCCC(=O)NCC3CCN(C(=O)C4CCN(Cc5ccc(-n6c(O)nnc6-c6cc(C(C)C)c(O)cc6O)cc5)CC4)CC3)nc3c2CCN(c2cccc4cccc(Cl)c24)C3)C[C@H]1CC#N [Compound 102, trifluoroacetic acid] :: > 7.00

Hi, could you look up pIC50 for each item in my list?
1. C=CC(=O)N1CCN(c2nc(OC[C@@H]3CCN(C(=O)c4ccc5c(c4)CN(C(=O)c4cc(C(C)C)c(OC)cc4O)C5)C3)nc3c2CCN(c2cccc4cccc(Cl)c24)C3)C[C@@H]1CC#N [Compound 173]
2. C=CC(=O)N1CCN(c2nc(NCCC(=O)NCCOCCOCCOc3ccc(-n4c(O)nnc4-c4cc(C(C)C)c(O)cc4O)cc3)nc3c2CCN(c2cccc4ccccc24)C3)C[C@@H]1CC#N [Compound 92, trifluoroacetic acid]
3. C=CC(=O)N1CCN(c2nc(OC[C@@H]3C[C@H](NC(=O)C4CCN(C(=O)C5CCN(Cc6ccc(-n7c(O)nnc7-c7cc(C(C)C)c(O)cc7O)cc6)CC5)CC4)CN3C)nc3c2CCN(c2cccc4cccc(Cl)c24)C3)C[C@@H]1CC#N [Compound 309]
4. C=CC(=O)N1CCN(c2nc(NCCC(=O)N3CCC(CN4CCN(Cc5ccc(-n6c(C(N)=O)nnc6-c6cc(CC)c(O)cc6O)cc5)CC4)CC3)nc3c2CCN(c2cc(O)cc4ccccc24)C3)CC1 [Compound 71]

["< 6.00", "> 7.00", "> 7.00", "> 7.00"]

Hi, could you look up pIC50 for each item in my list?
1. C=CC(=O)N1CCN(c2nc(OCCN3CCN(Cc4ccc(-n5c(O)nnc5-c5cc(C)c(O)cc5O)cc4)CC3)nc3c2CCN(c2cccc4cccc(Cl)c24)C3)C[C@@H]1CC#N [Compound 213]
2. CC(=O)N1CCN(c2nc(NCCC(=O)NCc3ccc(-n4c(O)nnc4-c4cc(C(C)C)c(O)cc4O)cc3F)nc3c2CCN(c2cc(O)cc4ccccc24)C3)CC1 [Compound 49, trifluoroacetic acid]
3. C=CC(=O)N1CCN(c2nc(OC[C@@H]3CC[C@H](CN4CCN(C(=O)C5CCN(Cc6ccc(-n7c(C(=O)NCC(F)(F)F)nnc7-c7cc(C(C)C)c(O)cc7O)cc6)CC5)CC4)N3C)nc3c2CCN(c2cccc4cccc(Cl)c24)C3)C[C@@H]1CC#N [Compound 310]
4. C=CC(=O)N1CCN(c2nc(OCC3CN(C(=O)C4CCN(Cc5ccc(-n6c(O)nnc6-c6cc(C(C)C)c(O)cc6O)cc5)CC4)C3)nc3c2CCN(c2cccc4cccc(Cl)c24)C3)C[C@@H]1CC#N [Compound 188, trifluoroacetic acid]
5. C=CC(=O)N1CCN(c2nc(OCCN3CCN(C(=O)c4ccc(-n5c(O)nnc5-c5cc(C(C)C)c(O)cc5O)cc4)CC3)nc3c2CCN(c2cccc4cccc(Cl)c24)C3)C[C@@H]1CC#N [Compound 195, trifluoroacetic acid]
6. C=CC(=O)N1CCN(c2nc(OC[C@@H]3CCN(C(=O)c4ccc(Nc5cc(-n6nc(C(F)(F)F)c7c6CC(C)(C)CC7=O)ccc5C(N)=O)cc4)C3)nc3c2CCN(c2cccc4cccc(Cl)c24)C3)C[C@@H]1CC#N [Compound 181]
7. CCC(=O)N1CCN(c2nc(NCCC(=O)N3CCC(CN4CCN(Cc5ccc(-n6c(C(N)=O)nnc6-c6cc(CC)c(O)cc6O)cc5)CC4)CC3)nc3c2CCN(c2cc(O)cc4ccccc24)C3)CC1 [Compound 75, trifluoroacetic acid]

1. > 7.00
2. 6.00 to 7.00
3. > 7.00
4. > 7.00
5. > 7.00
6. < 6.00
7. > 7.00

Hi, could you look up pIC50 for each item in my list?
1. C=CC(=O)N1CCN(c2nc(NCCC(=O)NCc3ccc(-n4c(O)nnc4-c4cc(C(C)C)c(O)cc4O)cc3C(F)(F)F)nc3c2CCN(c2cc(O)cc4ccccc24)C3)CC1 [Compound 36, trifluoroacetic acid]
2. C=CC(=O)N1CCN(c2nc(NCCC(=O)N3CCN(Cc4ccc5c(c4F)CN(C(=O)c4ccc(O)cc4O)C5)CC3)nc3c2CCN(c2cc(O)cc4ccccc24)C3)CC1 [Compound 105, trifluoroacetic acid]

1. 6.00 to 7.00
2. < 6.00

Report the value of pIC50 obtained on HSP90a protein (Homo sapiens) for CC(=O)N1CCN(c2nc(NCCC(=O)N3CCC(CN4CCC(Cc5ccc(-n6c(O)nnc6-c6cc(C(C)C)c(O)cc6O)cc5)CC4)CC3)nc3c2CCN(c2cc(O)cc4ccccc24)C3)CC1 [Compound 29, trifluoroacetic acid] . 6.00 to 7.00
